- SYSTEM_TESTED: PRMT1 (Homo sapiens, UniProt Q99873)
- Sequence (Q99873 whole entry): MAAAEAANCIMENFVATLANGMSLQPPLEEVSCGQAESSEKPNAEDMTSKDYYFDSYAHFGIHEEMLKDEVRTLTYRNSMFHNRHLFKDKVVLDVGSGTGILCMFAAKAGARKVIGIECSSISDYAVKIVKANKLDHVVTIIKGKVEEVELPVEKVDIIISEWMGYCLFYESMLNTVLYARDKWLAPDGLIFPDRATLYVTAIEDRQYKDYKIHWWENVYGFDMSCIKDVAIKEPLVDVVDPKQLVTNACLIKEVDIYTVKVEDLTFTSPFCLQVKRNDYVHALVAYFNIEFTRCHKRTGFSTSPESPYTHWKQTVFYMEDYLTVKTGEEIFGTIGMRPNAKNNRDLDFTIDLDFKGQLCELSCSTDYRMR
- TEST_METHOD_NOTES: PRMT1 Enzymatic Assay (LANCE TR-FRET, methylation of histone H4 at Arg3)
- Format: biochemical
- Parameters: purchased SignalChem P365-380G
- MEASUREMENT_CONDITIONS: PRMT1 1.5 nM, SAM 1 μM, biotinylated histone H4 (1-21) 25 nM; read-out: PRMT-1 IC50
MEASURED_PARAMETER: IC50 (nM)

A selection of reference data follows.
# COMPOUND, IC50 (nM)
records = [
    ("CNCCN(C)Cc1nn2c(c1C1CCC(COC)(COC)CC1)CN(C(=O)C1(OC)CC1)CC2", 94),
    ("CNCCN(C)Cc1nn2c(c1C1CCC(COC)(COC)CC1)CN(C(=O)C1CCCC1)CC2", 55),
    ("CNCCN(C)Cc1nn2c(c1C1CCC(COC)(COC)CC1)CN(C(=O)C(C)(C)F)CC2", 48),
    ("CCOC12CC(C(=O)N3CCn4nc(CN(C)CCNC)c(C5CCC(COC)(COC)CC5)c4C3)(C1)C2", 439),
    ("CNCCN(C)Cc1nn2c(c1C1CCC(COC)(COC)CC1)CN(C(=O)C1(C)CC1)CC2", 56),
]

a: COCC1(COC)CCC(c2c(CN(C)CCN)nn3c2CN(C(=O)C2CC(F)(F)C2)CC3)CC1
b: CNCCN(C)Cc1nn2c(c1C1CCC(COC)(COC)CC1)CN(C(=O)C(C)(C)C#N)CC2
input: Select one. Lower IC50: a or b Your answer should be the label attached to the chosen record.
output: a
